These data points were gathered from patent US11498928B2.

assay: Pharmacokinetic studies in mice (IV and PO); format: in vivo; settings: mouse, plasma, IV 2 mg/kg, read-out: C0/Cmax (C0)
readout label: Cmax (ng/mL)
Kindly provide the numeric value in ng/mL only, without the unit symbol.

Name the reported Cmax value associated with the molecule CO[C@H]1C2=C[C@@H](C2)[C@H](C)[C@@H](C)S(=O)(=O)NC(=O)c2ccc3c(c2)N(C[C@@H]2CC[C@H]21)C[C@@]1(CCCc2cc(Cl)ccc21)CO3 (single isomer, unassigned) [Cpd. No. 15 (isomer 1)]
2740

Follow-up item: CO[C@H]1/C=C/C[C@H](C)[C@@H](C)S(=O)(=O)NC(=O)c2ccc3c(c2)N(C[C@@H]2CC[C@H]21)C[C@@]1(CCCc2cc(Cl)ccc21)CO3 [AMG-176, reference compound]
1550

Follow-up item: COCCO[C@H]1C2=CC(C2)[C@H](C)[C@@H](C)S(=O)(=O)NC(=O)c2ccc3c(c2)N(C[C@@H]2CC[C@H]21)C[C@@]1(CCCc2cc(Cl)ccc21)CO3 (mixture of isomers) [16 (mixture)]
1260

Follow-up item: CO[C@H]1C2=CC(C2)[C@H](C)[C@@H](C)S(=O)(=O)NC(=O)c2ccc3c(c2)N(C[C@@H]2CC[C@H]21)C[C@@]1(CCCc2cc(Cl)c(F)cc21)CO3 (single isomer, unassigned) [Cpd. No. 21 (isomer 1)]
5160

---

molecular target: Mcl-1 protein (residues 171-323) (Homo sapiens)
Sequence (Q07820 171-323): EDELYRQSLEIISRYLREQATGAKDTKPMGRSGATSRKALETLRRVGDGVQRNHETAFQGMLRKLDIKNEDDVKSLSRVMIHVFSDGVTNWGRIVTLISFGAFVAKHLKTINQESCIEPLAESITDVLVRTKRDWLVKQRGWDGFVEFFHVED
pIC50: −log10 of the molar value.
Please use True whenever pIC50 is not below 8, and False whenever it is.

Answer whether pIC50 of CO[C@H]1C2=C[C@H](C2)[C@H](C)N(C[C@H]2CCCO2)S(=O)(=O)NC(=O)c2ccc3c(c2)N(C[C@@H]2CC[C@H]21)C[C@@]1(CCCc2cc(Cl)ccc21)CO3 (single isomer, unassigned) [30 (isomer 2)] is greater than or equal to 8.
True

Follow-up item: CO[C@H]1C2=CC(C)(C2)[C@H](C)CS(=O)(=O)NC(=O)c2ccc3c(c2)N(C[C@@H]2CC[C@H]21)C[C@@]1(CCCc2cc(Cl)ccc21)CO3 (mixture of isomers) [13 (mixture)]
False

Follow-up item: CO[C@@]1(CN(C)C(C)=O)C2=C[C@@H](C2)[C@H](C)[C@@H](C)S(=O)(=O)NC(=O)c2ccc3c(c2)N(C[C@@H]2CC[C@H]21)C[C@@]1(CCCc2c1ccc(Cl)c2F)CO3 [compound 53]
True

---

assay: Pharmacokinetic studies in mice (IV and PO); format: in vivo; settings: mouse, plasma, PO 10 mg/kg, read-out: Vz/F
readout label: Vd/F (L/kg)
Kindly provide the numeric value in L/kg only, without the unit symbol.

Name the reported Vd/F value associated with the compound CO[C@H]1C2=CC(C2)[C@H](C)[C@@H](C)S(=O)(=O)NC(=O)c2ccc3c(c2)N(C[C@@H]2CC[C@H]21)C[C@@]1(CCCc2cc(Cl)cc(F)c21)CO3 (single isomer, unassigned) [20 (isomer 1)]
3.1

Follow-up item: CO[C@H]1/C=C/C[C@H](C)[C@@H](C)S(=O)(=O)NC(=O)c2ccc3c(c2)N(C[C@@H]2CC[C@H]21)C[C@@]1(CCCc2cc(Cl)ccc21)CO3 [AMG-176, reference compound]
2.9

Follow-up item: CO[C@H]1C2=CC(C2)[C@H](C)CS(=O)(=O)NC(=O)c2ccc3c(c2)N(C[C@@H]2CC[C@H]21)C[C@@]1(CCCc2cc(Cl)ccc21)CO3 (single isomer, unassigned) [Cpd. No. 14 (Isomer 1)]
1.6

---

tested on: NCI-H929 cells; assay: Cell viability assay (NCI-H929 cells), CCK-8; format: cell-based; conditions: Homo sapiens, NCI-H929, 24 h, 5% FBS
readout label: IC50 (µM)
Kindly provide the numeric value in µM only, without the unit symbol.

Name the reported IC50 value associated with the compound C[C@@H]1[C@@H](C)S(=O)(=O)NC(=O)c2ccc3c(c2)N(C[C@@H]2CC[C@H]2[C@@H](OCCN2CCN(S(C)(=O)=O)CC2)C2=C[C@H]1C2)C[C@@]1(CCCc2c1ccc(Cl)c2F)CO3 [compound 76]
0.037

Follow-up item: CO[C@@]1(CN2CCN(S(C)(=O)=O)CC2)C2=C[C@@H](C2)[C@H](C)[C@@H](C)S(=O)(=O)NC(=O)c2ccc3c(c2)N(C[C@@H]2CC[C@H]21)C[C@@]1(CCCc2c1ccc(Cl)c2F)CO3 [compound 38]
0.05

Follow-up item: CO[C@@]1(CN2CCNCC2)C2=C[C@@H](C2)[C@H](C)[C@@H](C)S(=O)(=O)NC(=O)c2ccc3c(c2)N(C[C@@H]2CC[C@H]21)C[C@@]1(CCCc2c1ccc(Cl)c2F)CO3 [compound 41]
0.19

---

I'd appreciate it if you could supply half-life values for the items below.
experiment: Pharmacokinetic studies in mice (IV and PO); format: in vivo; details: mouse, plasma, PO 10 mg/kg
Answer format reminder: number followed by unit.

Name the reported half-life value associated with the compound CO[C@H]1C2=CC(C2)[C@H](C)[C@@H](C)S(=O)(=O)NC(=O)c2ccc3c(c2)N(C[C@@H]2CC[C@H]21)C[C@@]1(CCCc2cc(Cl)cc(F)c21)CO3 (single isomer, unassigned) [20 (isomer 1)]
4.9 h

Follow-up item: CO[C@H]1C2=C[C@@H](C2)[C@H](C)[C@@H](C)S(=O)(=O)NC(=O)c2ccc3c(c2)N(C[C@@H]2CC[C@H]21)C[C@@]1(CCCc2c1ccc(Cl)c2F)CO3 (single isomer, unassigned) [Cpd. No. 17 (isomer 1)]
10.6 h

Follow-up item: COCCO[C@H]1C2=CC(C2)[C@H](C)[C@@H](C)S(=O)(=O)NC(=O)c2ccc3c(c2)N(C[C@@H]2CC[C@H]21)C[C@@]1(CCCc2cc(Cl)ccc21)CO3 (mixture of isomers) [16 (mixture)]
4.9 h

Follow-up item: CO[C@H]1/C=C/C[C@H](C)[C@@H](C)S(=O)(=O)NC(=O)c2ccc3c(c2)N(C[C@@H]2CC[C@H]21)C[C@@]1(CCCc2cc(Cl)ccc21)CO3 [AMG-176, reference compound]
7.4 h

---

Heads up, these compounds all have pIC50 values measured for Mcl-1 protein (residues 171-323) (Homo sapiens, UniProt Q07820).
Keep it numeric: pIC50 is minus log10 of the concentration in mol/L.

Name the reported pIC50 value associated with the compound CC[C@@H]1CS(=O)(=O)NC(=O)c2ccc3c(c2)N(C[C@@H]2CC[C@H]2[C@@H](OC)C2=CC1C2)C[C@@]1(CCCc2cc(Cl)ccc21)CO3 (single isomer, unassigned) [Cpd. No. 10 (Isomer 1)]
8.31

Follow-up item: CO[C@H]1C2=CC(C2)[C@H](C)[C@@H](C)S(=O)(=O)NC(=O)c2ccc3c(c2)N(C[C@@H]2CC[C@H]21)C[C@@]1(CCCc2cc(Cl)cc(F)c21)CO3 (single isomer, unassigned) [20 (isomer 1)]
7.92

---

assay: Pharmacokinetic studies in mice (IV and PO); type: in vivo; conditions: mouse, plasma, PO 10 mg/kg, read-out: Vz/F
readout label: Vd/F (L/kg)
Kindly provide the numeric value in L/kg only, without the unit symbol.

Name the reported Vd/F value associated with the compound CO[C@H]1C2=C[C@@H](C2)[C@H](C)[C@@H](C)S(=O)(=O)NC(=O)c2ccc3c(c2)N(C[C@@H]2CC[C@H]21)C[C@@]1(CCCc2c1ccc(Cl)c2F)CO3 (single isomer, unassigned) [Cpd. No. 17 (isomer 1)]
2.2

Follow-up item: CO[C@H]1C2=CC(C2)[C@H](C)[C@@H](C)S(=O)(=O)NC(=O)c2ccc3c(c2)N(C[C@@H]2CC[C@H]21)C[C@@]1(CCCc2cc(Cl)c(F)cc21)CO3 (single isomer, unassigned) [Cpd. No. 21 (isomer 1)]
9.9

Follow-up item: COCCO[C@H]1C2=CC(C2)[C@H](C)[C@@H](C)S(=O)(=O)NC(=O)c2ccc3c(c2)N(C[C@@H]2CC[C@H]21)C[C@@]1(CCCc2cc(Cl)ccc21)CO3 (mixture of isomers) [16 (mixture)]
8.3

Follow-up item: CO[C@H]1C2=CC(C)(C2)[C@H](C)CS(=O)(=O)NC(=O)c2ccc3c(c2)N(C[C@@H]2CC[C@H]21)C[C@@]1(CCCc2cc(Cl)ccc21)CO3 (mixture of isomers) [13 (mixture)]
4.4

Follow-up item: CO[C@H]1C2=C[C@@H](C2)[C@H](C)[C@@H](C)S(=O)(=O)NC(=O)c2ccc3c(c2)N(C[C@@H]2CC[C@H]21)C[C@@]1(CCCc2cc(Cl)ccc21)CO3 (single isomer, unassigned) [Cpd. No. 15 (isomer 1)]
1.5

---

I'd appreciate it if you could supply half-life values for the items below.
test: Pharmacokinetic studies in mice (IV and PO); format: in vivo; conditions: mouse, plasma, IV 2 mg/kg
Kindly provide the numeric value in h only, without the unit symbol.

Name the reported half-life value associated with the compound COCCO[C@H]1C2=CC(C2)[C@H](C)[C@@H](C)S(=O)(=O)NC(=O)c2ccc3c(c2)N(C[C@@H]2CC[C@H]21)C[C@@]1(CCCc2cc(Cl)ccc21)CO3 (mixture of isomers) [16 (mixture)]
1.6

Follow-up item: CO[C@H]1C2=C[C@@H](C2)[C@H](C)[C@@H](C)S(=O)(=O)NC(=O)c2ccc3c(c2)N(C[C@@H]2CC[C@H]21)C[C@@]1(CCCc2cc(Cl)ccc21)CO3 (single isomer, unassigned) [Cpd. No. 15 (isomer 1)]
4.9

Follow-up item: CO[C@H]1C2=CC(C)(C2)[C@H](C)CS(=O)(=O)NC(=O)c2ccc3c(c2)N(C[C@@H]2CC[C@H]21)C[C@@]1(CCCc2cc(Cl)ccc21)CO3 (mixture of isomers) [13 (mixture)]
6.5

Follow-up item: CO[C@H]1C2=C[C@@H](C2)[C@H](C)[C@@H](C)S(=O)(=O)NC(=O)c2ccc3c(c2)N(C[C@@H]2CC[C@H]21)C[C@@]1(CCCc2c1ccc(Cl)c2F)CO3 (single isomer, unassigned) [Cpd. No. 17 (isomer 1)]
7
